PROTOCOL TEXT: Stability in aqueous media (FaSSIF, SGF, PBS)
Assay type: physicochemical
MEASUREMENT PARAMETERS: SGF pH 1.2, 37° C., 1 h
Some molecules, each annotated with its measured SGF (pH 1.2) % remaining 1 h.

{"MOLECULE": "CC(C)OC(=O)OCOC(=O)c1ccc2c(c1)nc(OCCOCCCCNCc1cc(F)c(OC(F)(F)F)c(F)c1)c1ccncc12 [Example 14]", "SGF (pH 1.2) % remaining 1 h": "105.1%"}
{"MOLECULE": "CC(C)OC(=O)c1ccc2c(c1)nc(OCCOCCCCNCc1cc(F)c(OC(F)(F)F)c(F)c1)c1ccncc12 [Example 2]", "SGF (pH 1.2) % remaining 1 h": "97.1%"}
{"MOLECULE": "COC(=O)c1ccc2c(c1)nc(OCCOCCCCNCc1cc(F)c(OC(F)(F)F)c(F)c1)c1ccncc12 [Example 4]", "SGF (pH 1.2) % remaining 1 h": "93.7%"}
{"MOLECULE": "CC(=O)OCOC(=O)c1ccc2c(c1)nc(OCCOCCCCNCc1cc(F)c(OC(F)(F)F)c(F)c1)c1ccncc12 [Example 10]", "SGF (pH 1.2) % remaining 1 h": "101.5%"}
{"MOLECULE": "CC(C)(C)OC(=O)OCOC(=O)c1ccc2c(c1)nc(OCCOCCCCNCc1cc(F)c(OC(F)(F)F)c(F)c1)c1ccncc12 [Example 15]", "SGF (pH 1.2) % remaining 1 h": "47.5%"}
{"MOLECULE": "CCOC(=O)OCOC(=O)c1ccc2c(c1)nc(OCCOCCCCNCc1cc(F)c(OC(F)(F)F)c(F)c1)c1ccncc12 [Example 13]", "SGF (pH 1.2) % remaining 1 h": "106.8%"}
{"MOLECULE": "CC(C)C(=O)OCOC(=O)c1ccc2c(c1)nc(OCCOCCCCNCc1cc(F)c(OC(F)(F)F)c(F)c1)c1ccncc12 [Example 5]", "SGF (pH 1.2) % remaining 1 h": "87.0%"}
{"MOLECULE": "CC(C)(C)C(=O)OCOC(=O)c1ccc2c(c1)nc(OCCOCCCCNCc1cc(F)c(OC(F)(F)F)c(F)c1)c1ccncc12 [Example 6]", "SGF (pH 1.2) % remaining 1 h": "88.8%"}
{"MOLECULE": "CN(C)CCOC(=O)c1ccc2c(c1)nc(OCCOCCCCNCc1cc(F)c(OC(F)(F)F)c(F)c1)c1ccncc12 [Example 3]", "SGF (pH 1.2) % remaining 1 h": "90.6%"}
{"MOLECULE": "CCC(=O)OCOC(=O)c1ccc2c(c1)nc(OCCOCCCCNCc1cc(F)c(OC(F)(F)F)c(F)c1)c1ccncc12 [Example 12]", "SGF (pH 1.2) % remaining 1 h": "101.3%"}
{"MOLECULE": "CC(C)(C)OC(=O)c1ccc2c(c1)nc(OCCOCCCCNCc1cc(F)c(OC(F)(F)F)c(F)c1)c1ccncc12 [Example 9]", "SGF (pH 1.2) % remaining 1 h": "102.1%"}
{"MOLECULE": "Cc1oc(=O)oc1COC(=O)c1ccc2c(c1)nc(OCCOCCCCNCc1cc(F)c(OC(F)(F)F)c(F)c1)c1ccncc12 [Example 7]", "SGF (pH 1.2) % remaining 1 h": "98.9%"}
{"MOLECULE": "CCOC(=O)c1ccc2c(c1)nc(OCCOCCCCNCc1cc(F)c(OC(F)(F)F)c(F)c1)c1ccncc12 [Example 8]", "SGF (pH 1.2) % remaining 1 h": "108.2%"}
{"MOLECULE": "O=C(OCOC(=O)c1ccc2c(c1)nc(OCCOCCCCNCc1cc(F)c(OC(F)(F)F)c(F)c1)c1ccncc12)OC1CCOCC1 [Example 16]", "SGF (pH 1.2) % remaining 1 h": "95.4%"}
{"MOLECULE": "COC(=O)OCOC(=O)c1ccc2c(c1)nc(OCCOCCCCNCc1cc(F)c(OC(F)(F)F)c(F)c1)c1ccncc12 [Example 11]", "SGF (pH 1.2) % remaining 1 h": "100.2%"}

----------
PROTOCOL TEXT: Stability in aqueous media (FaSSIF, SGF, PBS)
Format: physicochemical
MEASUREMENT PARAMETERS: PBS pH 7.4, 37° C., 6 h
The label is fulfilled for PBS (pH 7.4) % remaining 6 h below 20% and not fulfilled for PBS (pH 7.4) % remaining 6 h equal to or exceeding 20%.

{"ITEM SMILES": "CC(C)C(=O)OCOC(=O)c1ccc2c(c1)nc(OCCOCCCCNCc1cc(F)c(OC(F)(F)F)c(F)c1)c1ccncc12", "CATEGORY LABEL": "fulfilled"}
{"ITEM SMILES": "COC(=O)OCOC(=O)c1ccc2c(c1)nc(OCCOCCCCNCc1cc(F)c(OC(F)(F)F)c(F)c1)c1ccncc12", "CATEGORY LABEL": "not fulfilled"}
{"ITEM SMILES": "CC(C)(C)OC(=O)OCOC(=O)c1ccc2c(c1)nc(OCCOCCCCNCc1cc(F)c(OC(F)(F)F)c(F)c1)c1ccncc12", "CATEGORY LABEL": "not fulfilled"}
{"ITEM SMILES": "CC(C)(C)C(=O)OCOC(=O)c1ccc2c(c1)nc(OCCOCCCCNCc1cc(F)c(OC(F)(F)F)c(F)c1)c1ccncc12", "CATEGORY LABEL": "not fulfilled"}
{"ITEM SMILES": "CN(C)CCOC(=O)c1ccc2c(c1)nc(OCCOCCCCNCc1cc(F)c(OC(F)(F)F)c(F)c1)c1ccncc12", "CATEGORY LABEL": "fulfilled"}
{"ITEM SMILES": "CCC(=O)OCOC(=O)c1ccc2c(c1)nc(OCCOCCCCNCc1cc(F)c(OC(F)(F)F)c(F)c1)c1ccncc12", "CATEGORY LABEL": "fulfilled"}
{"ITEM SMILES": "O=C(OCOC(=O)c1ccc2c(c1)nc(OCCOCCCCNCc1cc(F)c(OC(F)(F)F)c(F)c1)c1ccncc12)OC1CCOCC1", "CATEGORY LABEL": "not fulfilled"}
{"ITEM SMILES": "CC(=O)OCOC(=O)c1ccc2c(c1)nc(OCCOCCCCNCc1cc(F)c(OC(F)(F)F)c(F)c1)c1ccncc12", "CATEGORY LABEL": "fulfilled"}
{"ITEM SMILES": "CCOC(=O)c1ccc2c(c1)nc(OCCOCCCCNCc1cc(F)c(OC(F)(F)F)c(F)c1)c1ccncc12", "CATEGORY LABEL": "not fulfilled"}
{"ITEM SMILES": "CCOC(=O)OCOC(=O)c1ccc2c(c1)nc(OCCOCCCCNCc1cc(F)c(OC(F)(F)F)c(F)c1)c1ccncc12", "CATEGORY LABEL": "fulfilled"}
{"ITEM SMILES": "CC(C)OC(=O)OCOC(=O)c1ccc2c(c1)nc(OCCOCCCCNCc1cc(F)c(OC(F)(F)F)c(F)c1)c1ccncc12", "CATEGORY LABEL": "not fulfilled"}
{"ITEM SMILES": "Cc1oc(=O)oc1COC(=O)c1ccc2c(c1)nc(OCCOCCCCNCc1cc(F)c(OC(F)(F)F)c(F)c1)c1ccncc12", "CATEGORY LABEL": "fulfilled"}
{"ITEM SMILES": "CC(C)(C)OC(=O)c1ccc2c(c1)nc(OCCOCCCCNCc1cc(F)c(OC(F)(F)F)c(F)c1)c1ccncc12", "CATEGORY LABEL": "not fulfilled"}
{"ITEM SMILES": "COC(=O)c1ccc2c(c1)nc(OCCOCCCCNCc1cc(F)c(OC(F)(F)F)c(F)c1)c1ccncc12", "CATEGORY LABEL": "not fulfilled"}
{"ITEM SMILES": "CC(C)OC(=O)c1ccc2c(c1)nc(OCCOCCCCNCc1cc(F)c(OC(F)(F)F)c(F)c1)c1ccncc12", "CATEGORY LABEL": "not fulfilled"}

----------
PROTOCOL TEXT: Solubility in simulated fluids (kinetic solubility, 24 hours)
Assay type: physicochemical
MEASUREMENT PARAMETERS: thermodynamic from solid; FaSSIF (pH 6.5), 24 hour timepoint, room temperature
Method: A known quantity of the Examples and control compounds were weighed into a suitable vessel (whatman miniuniprep vials) and a known volume of the required media was added (e.g. Simulated Gastric Fluid pH 1.2 [SGF], Simulated Fasted State Intestinal Fluid pH 6.5 [FaSSIF] or Phosphate Buffered Saline pH 7.4 [PBS]). The samples were subjected to vortex mixing for 2 minutes followed by agitation on a shaker for 24 hours at room temperature at 800 rpm.
We use 0.09 mg/mL as the dividing line for solubility kinetic at 24 h: on or above the line is t, below is f.

{"COMPOUND": "CC(C)OC(=O)OCOC(=O)c1ccc2c(c1)nc(OCCOCCCCNCc1cc(F)c(OC(F)(F)F)c(F)c1)c1ccncc12 [Example 14]", "CATEGORY LABEL": "t"}
{"COMPOUND": "CCOC(=O)c1ccc2c(c1)nc(OCCOCCCCNCc1cc(F)c(OC(F)(F)F)c(F)c1)c1ccncc12 [Example 8]", "CATEGORY LABEL": "f"}
{"COMPOUND": "O=C(OCOC(=O)c1ccc2c(c1)nc(OCCOCCCCNCc1cc(F)c(OC(F)(F)F)c(F)c1)c1ccncc12)OC1CCOCC1 [Example 16]", "CATEGORY LABEL": "t"}
{"COMPOUND": "Cc1oc(=O)oc1COC(=O)c1ccc2c(c1)nc(OCCOCCCCNCc1cc(F)c(OC(F)(F)F)c(F)c1)c1ccncc12 [Example 7]", "CATEGORY LABEL": "f"}
{"COMPOUND": "CCC(=O)OCOC(=O)c1ccc2c(c1)nc(OCCOCCCCNCc1cc(F)c(OC(F)(F)F)c(F)c1)c1ccncc12 [Example 12]", "CATEGORY LABEL": "t"}
{"COMPOUND": "CCOC(=O)OCOC(=O)c1ccc2c(c1)nc(OCCOCCCCNCc1cc(F)c(OC(F)(F)F)c(F)c1)c1ccncc12 [Example 13]", "CATEGORY LABEL": "t"}
